# assayRemarks: Toxicokinetics of formula (II) and methotrexate after individual and concomitant administration to Beagle dogs
# Assay type: in vivo
# experimentalSetup: male, Beagle, dog, plasma, po, 2.5 mg/kg, Group 3, methotrexate alone 2.5 mg/kg (reduced from 10), week 13, male Beagle dogs, mean
experimentalReadout: AUC(0-inf)

AUC(0-inf) reported for this molecule CN(Cc1cnc2nc(N)nc(N)c2n1)c1ccc(C(=O)N[C@@H](CCC(=O)O)C(=O)O)cc1 [MTX, methotrexate, reference compound] : 3000 ng·h/mL

###

# assayRemarks: Toxicokinetics of formula (II) and methotrexate after individual and concomitant administration to Beagle dogs
# Assay type: in vivo
# experimentalSetup: female, Beagle, dog, plasma, po, 25 mg/kg, Group 5 (+MTX), formula (II) 25 mg/kg, week 13, female Beagle dogs, mean
experimentalReadout: AUC(0-inf) (µg·h/mL)
Write the value in µg·h/mL as a bare number.

AUC(0-inf) reported for this compound `COc1cccc(-c2ccc(NC(=O)C3=C(C(=O)O)CCC3)c(F)c2)c1` : 1190

###

# assayRemarks: Toxicokinetics of formula (II) and methotrexate after individual and concomitant administration to Beagle dogs
# Type: in vivo
# experimentalSetup: male, Beagle, dog, plasma, po, 10 mg/kg, Group 4 (+MTX), formula (II) 10 mg/kg, week 13, male Beagle dogs, mean
experimentalReadout: Cmax (ng/mL)
Write the value in ng/mL as a bare number.

Cmax reported for this compound COc1cccc(-c2ccc(NC(=O)C3=C(C(=O)O)CCC3)c(F)c2)c1 [Formula (II)] : 35700

###

# assayRemarks: Toxicokinetics of formula (II) and methotrexate after individual and concomitant administration to Beagle dogs
# Format: in vivo
# experimentalSetup: female, Beagle, dog, plasma, po, 10 mg/kg, Group 4 (+MTX), formula (II) 10 mg/kg, day 1, female Beagle dogs, mean
experimentalReadout: half-life (min)
Write the value in min as a bare number.

half-life reported for this molecule `COc1cccc(-c2ccc(NC(=O)C3=C(C(=O)O)CCC3)c(F)c2)c1` : 444

###

# assayRemarks: Toxicokinetics of formula (II) and methotrexate after individual and concomitant administration to Beagle dogs
# Type: in vivo
# experimentalSetup: female, Beagle, dog, plasma, po, 25 mg/kg, Group 5 (+MTX), formula (II) 25 mg/kg, day 1, female Beagle dogs, mean
experimentalReadout: AUC(0-inf) (µg·h/mL)
Write the value in µg·h/mL as a bare number.

AUC(0-inf) reported for this compound COc1cccc(-c2ccc(NC(=O)C3=C(C(=O)O)CCC3)c(F)c2)c1 [Formula (II)] : 413

###

# assayRemarks: Toxicokinetics of formula (II) and methotrexate after individual and concomitant administration to Beagle dogs
# Format: in vivo
# experimentalSetup: female, Beagle, dog, plasma, po, 2.5 mg/kg, Group 5 (+25SC, in combination with 25 mg/kg formula (II)), methotrexate 2.5 mg/kg (reduced from 10), week 13, female Beagle dogs, mean
experimentalReadout: Cmax (ng/mL)
Write the value in ng/mL as a bare number.

Cmax reported for this molecule CN(Cc1cnc2nc(N)nc(N)c2n1)c1ccc(C(=O)N[C@@H](CCC(=O)O)C(=O)O)cc1 [MTX, methotrexate, reference compound] : 200

###

# assayRemarks: Toxicokinetics of formula (II) and methotrexate after individual and concomitant administration to Beagle dogs
# Assay type: in vivo
# experimentalSetup: male, Beagle, dog, plasma, po, 10 mg/kg, Group 4 (+10SC, in combination with 10 mg/kg formula (II)), methotrexate 10 mg/kg, day 1, male Beagle dogs, mean
experimentalReadout: Cmax
Please state the number and follow it with the unit.

Cmax reported for this molecule CN(Cc1cnc2nc(N)nc(N)c2n1)c1ccc(C(=O)N[C@@H](CCC(=O)O)C(=O)O)cc1 [MTX, methotrexate, reference compound] : 1700 ng/mL

###

# assayRemarks: Toxicokinetics of formula (II) and methotrexate after individual and concomitant administration to Beagle dogs
# Type: in vivo
# experimentalSetup: female, Beagle, dog, plasma, po, 10 mg/kg, Group 4 (+MTX), formula (II) 10 mg/kg, day 1, female Beagle dogs, mean
experimentalReadout: Cmax (ng/mL)
Write the value in ng/mL as a bare number.

Cmax reported for this compound `COc1cccc(-c2ccc(NC(=O)C3=C(C(=O)O)CCC3)c(F)c2)c1` : 43000

###

# assayRemarks: Toxicokinetics of formula (II) and methotrexate after individual and concomitant administration to Beagle dogs
# Assay type: in vivo
# experimentalSetup: female, Beagle, dog, plasma, po, 25 mg/kg, Group 5 (+MTX), formula (II) 25 mg/kg, day 1, female Beagle dogs, mean
experimentalReadout: Cmax
Please state the number and follow it with the unit.

Cmax reported for this compound `COc1cccc(-c2ccc(NC(=O)C3=C(C(=O)O)CCC3)c(F)c2)c1` : 33100 ng/mL

###

# assayRemarks: Toxicokinetics of formula (II) and methotrexate after individual and concomitant administration to Beagle dogs
# Format: in vivo
# experimentalSetup: male, Beagle, dog, plasma, po, 25 mg/kg, Group 5 (+MTX), formula (II) 25 mg/kg, week 13, male Beagle dogs, mean
experimentalReadout: half-life (h)
Write the value in h as a bare number.

half-life reported for this compound COc1cccc(-c2ccc(NC(=O)C3=C(C(=O)O)CCC3)c(F)c2)c1 [Formula (II)] : 7.9

###

# assayRemarks: Toxicokinetics of formula (II) and methotrexate after individual and concomitant administration to Beagle dogs
# Assay type: in vivo
# experimentalSetup: female, Beagle, dog, plasma, po, 10 mg/kg, Group 5 (+25SC, in combination with 25 mg/kg formula (II)), methotrexate 10 mg/kg, day 1, female Beagle dogs, mean
experimentalReadout: Cmax (ng/mL)
Write the value in ng/mL as a bare number.

Cmax reported for this molecule CN(Cc1cnc2nc(N)nc(N)c2n1)c1ccc(C(=O)N[C@@H](CCC(=O)O)C(=O)O)cc1 [MTX, methotrexate, reference compound] : 1200

###

# assayRemarks: Toxicokinetics of formula (II) and methotrexate after individual and concomitant administration to Beagle dogs
# Assay type: in vivo
# experimentalSetup: male, Beagle, dog, plasma, po, 10 mg/kg, Group 3, methotrexate 10 mg/kg alone, day 1, male Beagle dogs, mean
experimentalReadout: AUC(0-inf) (ng·h/mL)
Write the value in ng·h/mL as a bare number.

AUC(0-inf) reported for this compound CN(Cc1cnc2nc(N)nc(N)c2n1)c1ccc(C(=O)N[C@@H](CCC(=O)O)C(=O)O)cc1 [MTX, methotrexate, reference compound] : 6400

###

# assayRemarks: Toxicokinetics of formula (II) and methotrexate after individual and concomitant administration to Beagle dogs
# Format: in vivo
# experimentalSetup: female, Beagle, dog, plasma, po, 2.5 mg/kg, Group 4 (+10SC, in combination with 10 mg/kg formula (II)), methotrexate 2.5 mg/kg (reduced from 10), week 13, female Beagle dogs, mean
experimentalReadout: half-life (h)
Write the value in h as a bare number.

half-life reported for this molecule CN(Cc1cnc2nc(N)nc(N)c2n1)c1ccc(C(=O)N[C@@H](CCC(=O)O)C(=O)O)cc1 [MTX, methotrexate, reference compound] : 2.6

###

# assayRemarks: Toxicokinetics of formula (II) and methotrexate after individual and concomitant administration to Beagle dogs
# Type: in vivo
# experimentalSetup: male, Beagle, dog, plasma, po, 25 mg/kg, Group 5 (+MTX), formula (II) 25 mg/kg, day 1, male Beagle dogs, mean
experimentalReadout: AUC(0-inf) (µg·h/mL)
Write the value in µg·h/mL as a bare number.

AUC(0-inf) reported for this compound COc1cccc(-c2ccc(NC(=O)C3=C(C(=O)O)CCC3)c(F)c2)c1 [Formula (II)] : 858

###

# assayRemarks: Toxicokinetics of formula (II) and methotrexate after individual and concomitant administration to Beagle dogs
# Format: in vivo
# experimentalSetup: male, Beagle, dog, plasma, po, 10 mg/kg, Group 4 (+MTX), formula (II) 10 mg/kg, day 1, male Beagle dogs, mean
experimentalReadout: AUC(0-inf) (µg·h/mL)
Write the value in µg·h/mL as a bare number.

AUC(0-inf) reported for this molecule COc1cccc(-c2ccc(NC(=O)C3=C(C(=O)O)CCC3)c(F)c2)c1 [Formula (II)] : 322

###

# assayRemarks: Toxicokinetics of formula (II) and methotrexate after individual and concomitant administration to Beagle dogs
# Type: in vivo
# experimentalSetup: female, Beagle, dog, plasma, po, 2.5 mg/kg, Group 3, methotrexate alone 2.5 mg/kg (reduced from 10), week 13, female Beagle dogs, mean
experimentalReadout: half-life (h)
Write the value in h as a bare number.

half-life reported for this compound CN(Cc1cnc2nc(N)nc(N)c2n1)c1ccc(C(=O)N[C@@H](CCC(=O)O)C(=O)O)cc1 [MTX, methotrexate, reference compound] : 2.3

###

# assayRemarks: Toxicokinetics of formula (II) and methotrexate after individual and concomitant administration to Beagle dogs
# Assay type: in vivo
# experimentalSetup: female, Beagle, dog, plasma, po, 10 mg/kg, Group 3, methotrexate 10 mg/kg alone, day 1, female Beagle dogs, mean
experimentalReadout: Cmax
Please state the number and follow it with the unit.

Cmax reported for this compound CN(Cc1cnc2nc(N)nc(N)c2n1)c1ccc(C(=O)N[C@@H](CCC(=O)O)C(=O)O)cc1 [MTX, methotrexate, reference compound] : 1100 ng/mL
